# Target or system: human VR1 (Homo sapiens, UniProt Q8NER1)
# Sequence (Q8NER1 whole entry): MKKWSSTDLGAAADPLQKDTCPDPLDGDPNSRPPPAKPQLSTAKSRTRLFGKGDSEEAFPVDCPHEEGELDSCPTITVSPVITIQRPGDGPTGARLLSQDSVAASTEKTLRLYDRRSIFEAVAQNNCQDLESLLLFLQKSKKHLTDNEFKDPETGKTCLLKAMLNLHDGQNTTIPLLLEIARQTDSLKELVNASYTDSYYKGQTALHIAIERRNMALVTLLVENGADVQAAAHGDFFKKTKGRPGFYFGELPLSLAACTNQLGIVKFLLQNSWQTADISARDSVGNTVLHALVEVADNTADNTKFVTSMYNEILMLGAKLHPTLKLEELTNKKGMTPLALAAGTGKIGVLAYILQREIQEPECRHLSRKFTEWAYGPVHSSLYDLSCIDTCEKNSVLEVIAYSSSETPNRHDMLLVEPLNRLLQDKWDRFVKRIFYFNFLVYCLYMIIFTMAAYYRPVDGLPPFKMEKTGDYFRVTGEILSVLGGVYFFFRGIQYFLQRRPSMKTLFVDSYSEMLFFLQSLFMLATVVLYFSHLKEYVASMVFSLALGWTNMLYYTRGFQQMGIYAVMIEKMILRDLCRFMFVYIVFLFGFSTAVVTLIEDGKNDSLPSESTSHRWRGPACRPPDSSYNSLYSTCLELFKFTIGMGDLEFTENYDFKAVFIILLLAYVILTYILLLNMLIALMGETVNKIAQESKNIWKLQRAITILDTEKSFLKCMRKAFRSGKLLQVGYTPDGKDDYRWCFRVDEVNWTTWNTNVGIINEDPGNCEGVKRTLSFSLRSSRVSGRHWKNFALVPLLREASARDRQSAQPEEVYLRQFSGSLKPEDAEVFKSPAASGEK
# Procedure details: Human VR1 functional assay (FLIPR intracellular Ca2+)
# Study conditions: antagonism of capsaicin-induced Ca2+ increase; read-out: h IC50
pIC50: −log10 of the molar value.
Measurement label: pIC50

The cases that follow already have their pIC50 on record.
Smiles: O=C(CCc1ccc(C(F)(F)F)cn1)Nc1ccc(-n2cnc(Cl)c2Cl)c(C(F)(F)F)c1
pIC50: 6.22
--
Smiles: O=C(CCc1ccc(Cl)cc1)Nc1ccc(-c2ccncc2)c(C(F)(F)F)c1
pIC50: 6.69

(P) Cc1cc(NC(=O)CCc2ccc(C(C)(C)C)cc2)ccc1-c1ccccn1
(Q) CC(C)(C)c1ccc(CCC(=O)Nc2cnc(-n3ccnc3)c(C(F)(F)F)c2)cc1
(R) CC(C)(C)c1ccc(CCC(=O)Nc2ccc(-c3cccc(NCCO)c3)cc2)cc1
(S) O=C(CCc1ccc(F)cc1)Nc1ccc(-n2cnc(Cl)c2Cl)c(C(F)(F)F)c1
(T) Cc1cc(NC(=O)CCc2ccc(C(C)(C)C)cc2)cc(C)c1-c1ccccn1
Arrange the 5 molecules from largest to smallest pIC50. Use the labels to give the ranking in the order requested.
Q, P, S, T, R

(a) Cc1cn(-c2ccc(NC(=O)CCc3ccc(SC(F)(F)F)cc3)cc2C(F)(F)F)cn1
(b) Cc1cc(NC(=O)CCc2ccc(C(C)(C)C)cc2)cnc1-c1ccccc1O
Could you determine which record has the numerically smaller pIC50? Candidates: a and b Could you answer with the label of the item you picked?
a

(1) O=C(/C=C/c1ccc(SC(F)(F)F)cc1)Nc1ccc(-n2cnc(Cl)c2Cl)c(C(F)(F)F)c1
(2) O=C(CCc1ccc(C(F)(F)F)cc1)Nc1ccc(-n2cnc(Cl)c2Cl)c(C(F)(F)F)c1
(3) Cc1cn(-c2ccc(NC(=O)CCc3ccc(C(F)(F)F)cc3)cc2C(F)(F)F)cn1
(4) CC(C)(C)c1ccc(CCC(=O)Nc2ccc(-n3cnc(Cl)c3Cl)cc2)cc1
Arrange the 4 molecules from largest to smallest pIC50. Use the labels to give the ranking in the order requested.
3, 4, 2, 1

(P) Cc1cc(NC(=O)CCc2ccc(C(C)(C)C)cc2)cnc1-c1ccc(CO)cc1
(Q) O=C(CCc1ccc(C(F)(F)F)cc1)Nc1ccc(-n2cnc(Cl)c2)c(C(F)(F)F)c1
Returns: the argument ( P or Q ) having the larger pIC50. Could you answer with the label of the item you picked?
P
(P: 7.01, Q: 6.77)

###

# Target or system: human VR1 (Homo sapiens, UniProt Q8NER1)
# Construct: expressed in transfected cells; host or cells: HEK293
# Procedure details: Human VR1 [3H]RTX binding assay
# Study conditions: inhibition of [3H]RTX binding at 1 μM
# Method: Compounds of the present invention were tested for their ability to inhibit the binding of tritiated resiniferatoxin ([^3H] RTX) to human VR1 receptors in a [^3H] […] Data were calculated according to the equation: % inhibtion=(total binding−binding)*100/(total binding−non specific binding). Ki values were calculated based on an average of duplicate measurements using a GraphPad Prism program.
Measurement label: h Binding % I (1 μM) (%)

Molecule: O=C(CCc1ccc(C(F)(F)F)cc1)Nc1ccc(-c2cccc(O)c2)c2ccccc12 [Cpd 85]
Units symbol: %
h Binding % I (1 μM): 1
//
Molecule: CC(C)(C)c1ccc(CCC(=O)Nc2ccccc2-c2cccc(O)c2)cc1 [Cpd 4]
Units symbol: %
h Binding % I (1 μM): 1
//
Molecule: Cc1cc(-c2cccc(C(N)=O)c2)ccc1NC(=O)CCc1ccc(C(C)(C)C)cc1 [Cpd 50]
Units symbol: %
h Binding % I (1 μM): 11
//
Molecule: CC(C)(C)c1ccc(CCC(=O)Nc2ccc(-c3cccc(O)c3)c3ccccc23)cc1 [Cpd 82]
Units symbol: %
h Binding % I (1 μM): 28
//
Molecule: CC(C)(C)c1ccc(CCC(=O)Nc2ccc(-c3cccc(C(N)=O)c3)cc2F)cc1 [Cpd 52]
Units symbol: %
h Binding % I (1 μM): 1
//
Molecule: CC(C)(C)c1ccc(CCC(=O)Nc2ccc(-c3ccncc3)c3cnccc23)cc1 [Cpd 156]
Units symbol: %
h Binding % I (1 μM): 33
//
Molecule: O=C(CCc1ccc(C(F)(F)F)cc1)Nc1ccc(-c2cccnc2)cc1 [Cpd 142]
Units symbol: %
h Binding % I (1 μM): 45
//
Molecule: CC(=O)Nc1cccc(-c2ccc(NC(=O)CCc3ccc(C(C)(C)C)cc3)c3ccccc23)c1 [Cpd 81]
Units symbol: %
h Binding % I (1 μM): 6

(P) CC(C)(C)c1ccc(CCC(=O)Nc2ccccc2-c2cccc(CO)c2)cc1 [Cpd 19]
(Q) O=C(CCc1ccc(C(F)(F)F)cc1)Nc1ccc(-c2cccc(CO)c2)cc1 [Cpd 79]
(R) CN(C)C(=O)c1cccc(-c2ccc(NC(=O)CCc3ccc(C(C)(C)C)cc3)cc2)c1 [Cpd 39]
Rank ascending by h Binding % I (1 μM). Use the labels to give the ranking in the order requested.
P, R, Q
(P: 1%, R: 5%, Q: 19%)

(a) CC(C)(C)c1ccc(CCC(=O)Nc2ccc(-c3cccc(C(N)=O)c3)cc2C(=O)O)cc1 [Cpd 66]
(b) CC(C)(C)c1ccc(CCC(=O)Nc2ccc(-c3cccc(O)c3)c3cnccc23)cc1 [Cpd 155]
Returns: the argument ( a or b ) having the larger h Binding % I (1 μM). Could you answer with the label of the item you picked?
b

(P) CC(C)(C)c1ccc(CCC(=O)Nc2ccc(-c3ccncc3)cc2C(=O)O)cc1 [Cpd 139]
(Q) Cc1cc(NC(=O)CCc2ccc(C(C)(C)C)cc2)ccc1-c1cccc(C(N)=O)c1 [Cpd 51]
(R) O=C(CCc1ccc(C(F)(F)F)cc1)Nc1ccc(-c2ccncc2)cc1 [Cpd 143]
Arrange the 3 molecules from largest to smallest h Binding % I (1 μM). Use the labels to give the ranking in the order requested.
R, Q, P
(R: 44%, Q: 19%, P: 1%)

(a) CC(C)(C)c1ccc(CCC(=O)Nc2cnc(-c3cccc(C(N)=O)c3)cn2)cc1 [Cpd 131]
(b) CC(C)(C)c1ccc(CCC(=O)Nc2cccc(-c3cccc(C(N)=O)c3)c2)cc1 [Cpd 37]
Could you determine which record has the numerically smaller h Binding % I (1 μM)? Candidates: a and b Could you answer with the label of the item you picked?
a
(a: 1%, b: 21%)
